tested on: Leishmania donovani; experiment: Leishmania intramacrophage assay; assay type: functional, organism-based; parameters: scale not given: in the data most compounds retested in dose-response had high values; conditions: 30.3 µM; […]
The whole screen tested about 69,000 compounds, of which about 1,000 (1.4%) showed an effect of 50% or more. This is one part of a sample in which strong results are shown more often than they occur.
reported endpoint: Percent Effect
Form entry: enter the amount, then its unit.

Dear colleague, I am looking for the recorded Percent Effect of the following molecule: "CCc1c(C)sc2nc3n(CCN4CCOCC4)nc(SC)n3c(=O)c12"
9.764%

---

tested on: Leishmania donovani; experiment: Leishmania intramacrophage assay; type: functional, organism-based; design: scale not given: in the data most compounds retested in dose-response had high values; conditions: 30.3 µM; […]
Hit rate of the full screen: of about 69,000 compounds, about 1,000 (1.4%) showed an effect of 50% or more. This excerpt belongs to a sample that is enriched for strong results.
Simple rule here: Percent Effect less than 20% is class 1, otherwise class 0.

- molecule: "CCc1cc(N2CCC(NCCc3nc(C)c(C)s3)CC2)nc(C)n1"
  cat: "class 0"
- molecule: "CCn1cc(CN2CCCC(COc3ccccc3F)C2)cn1 (stereo unspecified)"
  cat: "class 0"
- molecule: "CCc1cc(N2CCC(NCCc3ccc(C)o3)CC2)nc(C)n1"
  cat: "class 1"

Is Percent Effect of "O=C(NCc1cccnc1)[C@@H]1CC[C@@H]2[C@@H](CCN2c2ncc(F)cn2)O1.O=C(O)C(F)(F)F.O=C(O)C(F)(F)F" strictly below 20%?
class 0
